- Test Target: ScNbp2
- Measurement Notes: SPOT peptide array binding signal intensity (averaged, normalized) (arbitrary units (background-subtracted, floor 0; scale differs between SH3 domains)); higher = stronger binding of the SH3 domain to the peptide
Quantity Kind: SPOT peptide array binding signal intensity
One number for each entry.

In the examples that follow, each entry is paired with its recorded SPOT peptide array binding signal intensity.
Binder: RLSRLLLSLPPESFT
Quantitative Result: 176
--
Binder: VPKEPAPAPPPEPDM
Quantitative Result: 10.5
--
Binder: RPKRRAPPPVPKKPS
Quantitative Result: 5640
--
Binder: VATSTSPKLPPRGKQ
Quantitative Result: 5
--
Binder: QLLNPNRRAPRRPLS
Quantitative Result: 6040
--
Binder: RLSFFFPLDPAYIRN
Quantitative Result: 84.5
--
Binder: QPQRTAPKPPISAPR
Quantitative Result: 2700
--
Binder: IHTRRPSSTSQYLIR
Quantitative Result: 267

State recorded SPOT peptide array binding signal intensity for all listed binders.
1. ALFRLSFFFPLDPAY
2. STKKPRPPVKSKPKH
3. RRRDFGAPANKRPRR
4. VNFRRIPTGPDSPPT

802
22
76.5
35.5
